- ASSAYED_SYSTEM: T1, ckCDH19(1-43)::FLAG::ckCDH19(44-249)::huCDH19(250-364)::ckCDH19(365-776), on 293T cells (human/chicken chimera)
- T1 construct: Entry holds leader (1-43), Flag tag and CDH19 part; leader left out; also called Hu EC3 (chicken backbone)
- TEST: FACS, transfected 293T;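 note: antibody binding to chimera-expressing cells with 2 mM CaCl2 present, cell-bound Alexa647-labelled antibody read by flow cytometry, mock-transfected cells serving as control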
ASSAY_METRIC: binding result

Look up binding result for this binder: anti-CDH19 antibody 2G6 (Ab ID 13588) (antibody, human IgG1, lambda, V domains shown) VH: QVQLVESGGGVVQPGRSLRLSCAASGFTFSSYGMHWVRQAPGKGLEWVAFIWYDGSNKYYADSVKDRFTISRDNSKNTLYLQMKSLRAEDTAVYYCARRAGIIGTIGYYYGMDVWGQGTTVTVSS VL: SYELTQPPSVSVSPGQTASITCSGDRLGEKYTCWYQQRPGQSPLLVIYQDTKRPSGIPERFSGSNSGNTATLTISGTQAMDEADYYCQAWDSSTVVFGGGTKLTVLG
binds

Look up binding result for this binder: hu anti-<huCDH19> 4B10 VH::huIgG1z / 4B10 VL::huKLC (Ab ID 13590) (antibody, V domains shown) VH: QVQLVESGGGVVQPGRSLRLSCAASGFTFSSYDMHWVRQAPGKGLEWVAVISYDGTNEYYADSVKGRFTISRDTSKNTLYLQMNSLRAEDTAVYYCARERYFDWSFDYWGQGTLVSVSS VL: EIVLTQSPGTLSLSPGERATLSCRASQSVSNTYLAWYHQRPGQAPRLLIYGASSRATGIPDRFSGSGSGTDFALTISSLEPEDFAVYYCQQYSNSWTFGQGTKVEIKR
binds

Look up binding result for this binder: hu anti-<huCDH19> 23A10.3 (1-474)(L92Q) VH::huIgG1z / 23A10.3 (1-231)(C42S) VL::huLLC-C2 (Ab ID 14077) (antibody, V domains shown, Engineered variant of 23A10) VH: QVQLVESGGGVVQPGRSLRLSCAASGFTFSRYGIHWVRQAPGKGLEWVAVIWYDGSNKYYADSVKGRFTISRDNSKNTLYLQMNSLRAEDSAVYYCARRAGIPGTTGYYYGMDVWGQGTTVTVSS VL: SYELTQPPSVSVSPGQTASITCSGDRLGEKYVSWYQQKPGQSPILVIYQDNKWPSGIPERFSGSNSGNTATLTISGTQAMDEADYYCQAWDSSTVVFGGGTKLTVLG
binds
